Hey, just so you know, these numbers are from paper PMC13372822.

# measurement target: SUCR1 (Homo sapiens)
# Construct: The full-length human SUCR1 and mutations were fused after the HA signal peptide and Flag tag; HA signal peptide (N); Flag (N)
# Sequence (Q9BXA5 whole entry, the tested form may be a part): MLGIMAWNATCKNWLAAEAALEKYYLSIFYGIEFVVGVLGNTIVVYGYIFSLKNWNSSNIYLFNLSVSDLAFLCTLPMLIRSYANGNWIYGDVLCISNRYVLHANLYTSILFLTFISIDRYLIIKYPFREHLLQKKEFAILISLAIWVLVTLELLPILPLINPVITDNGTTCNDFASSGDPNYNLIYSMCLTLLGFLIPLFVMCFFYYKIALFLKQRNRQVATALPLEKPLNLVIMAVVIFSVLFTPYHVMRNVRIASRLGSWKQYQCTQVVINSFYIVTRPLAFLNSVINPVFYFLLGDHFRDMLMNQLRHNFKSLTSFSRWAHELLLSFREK
# procedure details: Calcium mobilization assay, wild-type SUCR1 in HEK293 stably expressing Gα16
# condition label: SUCR1 WT
Where a name gives a salt, the structure may show the parent alone.
property measured: pEC50
Reminder that pEC50 means the negative base-10 logarithm of the concentration expressed in mol/L.

pEC50 of O=C(O)/C=C\C(=O)O [MA, maleate] , assay on SUCR1 (Homo sapiens), is 3.68

###

Task for the reader: assign each of the following compounds its reported pEC50.
# Tested on: OXGR1 mutants (variant named in the endpoint)
# procedure details: Calcium mobilization assay, OXGR1 mutants in HEK293;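 further: human OXGR1 variants transiently expressed in HEK293 cells, with intracellular calcium read out by Fluo-4 AM fluorescence, measured 24 h after transfection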
# condition label: OXGR1 L299P
pEC50: −log10 of the molar value. Structures can show the parent of a compound that is named as a salt.

Given item C=C(CC(=O)O)C(=O)O [ITA, itaconate] , the value recorded as its pEC50 is < 3.00

Given item O=C(O)CCC(=O)O [SUC, succinate] , the value recorded as its pEC50 is < 3.00

Given item O=C(O)/C=C\C(=O)O [MA, maleate] , the value recorded as its pEC50 is < 3.00
